Hello, the source for this data is paper PMC9061180, in case you need it.

- System: MCF-7 (breast carcinoma)
- assay name: cells
- Type: cell-based
- assay context: Homo sapiens, MCF7, 72 h, read-out: GI50 MCF-7
property label: GI50 (nM)

* C#CC(=O)N(c1ccccc1)C(C(=O)NCc1ccccc1)c1ccccc1 (racemic) [Compound 17a] | 1700
* C#CC(=O)N(c1ccccc1)C(C(=O)NC1CCCCC1)c1ccccc1 (racemic) [Compound 12] | 1600

(A) C#CC(=O)N(c1ccc(OC)cc1)C(C(=O)NC1CCCCC1)c1ccccc1 (racemic) [Compound 19]
(B) C#CC(=O)N(c1ccccc1)C(C(=O)NC1CCCCC1)c1cccc(OC)c1OC (racemic) [Compound 20]
Endpoint returns whichever of A and B has the numerically higher GI50. Write the label of whichever entry you select.
B
(B: 1800 nM, A: 1200 nM)
